# Target Entity: T1, Pex13, P80667
# T1 sequence (P80667 295-386, looked up): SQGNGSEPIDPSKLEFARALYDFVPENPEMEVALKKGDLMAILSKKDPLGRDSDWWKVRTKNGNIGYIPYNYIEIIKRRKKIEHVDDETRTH
# Assay Summary: SPOT array
# Conditions Used: median of control spots 1341
Readout Kind: SPOT intensity
Just the number, please.

INSERT INTO assay_data (binder, val) VALUES
  ('ISRRRLPVIMHRLKM', 22),
  ('RAPPPVPKKPSSRIA', 395),
  ('WTQRRGPLVVYAEDN', 10);

Value of SPOT intensity reported for the binder "KNPRRQLQIPRQQPS" is 3

Value of SPOT intensity reported for the binder "IRMPSNPALPKKLLN" is 352

Value of SPOT intensity reported for the binder "VRTRRRPPPPPIPST" is 8

Value of SPOT intensity reported for the binder "RRARRQMGIPTISQV" is 19
